Where do the numbers come from? From patent EP4644423A1.

# MEASUREMENT TARGET: CGRP receptor on SK-N-MC cells (UniProt O60894 27-148; Q16602 23-461, limits assumed)
# Sequence (O60894 27-148 limits assumed, chain 1 of 2): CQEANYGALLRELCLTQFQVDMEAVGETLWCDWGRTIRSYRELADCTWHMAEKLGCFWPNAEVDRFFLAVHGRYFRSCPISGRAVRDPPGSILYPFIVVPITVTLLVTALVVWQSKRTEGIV
# Sequence (Q16602 23-461 limits assumed, chain 2 of 2): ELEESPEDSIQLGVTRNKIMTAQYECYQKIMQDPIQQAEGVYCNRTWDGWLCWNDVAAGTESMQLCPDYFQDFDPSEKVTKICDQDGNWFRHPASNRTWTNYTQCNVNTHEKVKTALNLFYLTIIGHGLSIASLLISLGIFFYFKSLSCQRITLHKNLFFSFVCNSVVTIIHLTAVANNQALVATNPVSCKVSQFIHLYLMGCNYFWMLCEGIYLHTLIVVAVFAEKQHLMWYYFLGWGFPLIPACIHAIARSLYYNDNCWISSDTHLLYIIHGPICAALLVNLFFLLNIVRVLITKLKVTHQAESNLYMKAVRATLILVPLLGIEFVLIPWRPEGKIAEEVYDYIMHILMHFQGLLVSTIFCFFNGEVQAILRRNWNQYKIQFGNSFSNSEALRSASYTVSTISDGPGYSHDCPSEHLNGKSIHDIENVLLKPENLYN
# TEST DESCRIPTION: cell-based or functional assay
PARAMETER MEASURED: IC50 (nM), inhibition of CGRP-induced (5 nM) cAMP production in SK-N-MC cells

A10-268-103 (VHH, Llama VHH with C-terminal 6xHis, expressed in 293 cells; also called B828605) VHH: QVQLVESGGGLVQAGGSLRLSCVASGRTFSSYAMGWFRQAPGKEREFVSGITESGATTRYADSMRGRFIISRDNAQNTVYLEMNSLKPEDSAVYYCAASRFGITVPTAKGAYNYWGQGTQVTVSS
279

(A) A10-268-273 (VHH) VHH: EVQLVESGGGLVQPGDSLTLSCAASGRAKNRYVMGWFRQAPGKEREFVAALRWSSSNTNYAASVKGRFTISRDYAKDTVYLQMNSLKPDDTAVYYCAAKRDRPYGSTWTPVAADYDTWGQGTQVTVSA
(B) A10-268-18 (VHH) VHH: QVQLVESGGGQVQAGGSLRLSCAASGRISSSYDMGWLRQAPGKEREFVARITWSGGSTYYADSVKGRFTISRDSTKKTVYLQMNSLKPEDTAVYYCAANRAFTGQYDYWGQGTQVTVSS
// pick larger IC50 (nM), inhibition of CGRP-induced (5 nM) cAMP production in SK-N-MC cells from pair: A vs B # reply format: chosen label
B
(B: 492 nM, A: 23.6 nM)
